studyTarget: T1, human CLDN18.2 (human)
T1 construct: also called hCLDN18.2; huCLDN18.2
experimentSummary: flow cytometry, phage supernatant on hCLDN18.2-expressing HEK293T cells
Assign mean fluorescence intensity to each entry below.
Just the number plus its unit, please.

binder	measuredResult
A-2-3 (VHH) VHH: EVQLVESGGGLVQPGGSLRLSCAASGSIFNLPVMSWYRQAPGKQRELVAGISTGGTTNYGDSVKGRFTISRDNAKNTVYLQMNSLKPEDTAVYYCNVLVVSGIGSHLEVWG	570000 MFI
A18-1-44 (VHH) VHH: EVQLVESGGGLVQPGGSLRLSCAASGSIFNLPVMSWYRQAPGKQRELVAGISTGGTTNYGDSVKGRFTISRDNAKNTVYLQMNSLKPEDTAVYYCNVLVISGIGSHLEVWG	390000 MFI

Now take the following binder into account.
Dear colleague, please send me the reported mean fluorescence intensity for A18-1-70 (VHH) VHH: QVQLVESGGGLVQPGGSLRLSCAASGNIFRIDTMGWYRQAPGKQRELVAGISRGGTTTYAHSVKERFTISRDNAKNTMYLQMNSLKSEDTAGYYCNAQAWDPGTFRYLEVWGQGTLVTVSA when you can.
402000 MFI
